Each entry below carries its recorded %Inh.
System: FGFR4;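 note: KINOMEscan kinase panel screen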
Details: concentration: 1 μM, replicates: in singlicate; n = 1
MEASUREMENT TYPE: %Inh (%)

[
  {
    "COMPOUND": "Cn1cc(-c2cnc(N)c3c(-c4ccc5c(c4)CCN5C(=O)Cc4ccccc4)csc23)cn1",
    "ASSAYED SYSTEM": "FGFR4",
    "OBSERVED VALUE": 0
  },
  {
    "COMPOUND": "Nc1ncnc2scc(-c3ccc(NC(=O)Cc4cc(F)ccc4F)cc3)c12.O=C(O)C(F)(F)F",
    "ASSAYED SYSTEM": "FGFR4",
    "OBSERVED VALUE": 9
  },
  {
    "COMPOUND": "O=C(Nc1c(F)cccc1F)c1cc(C(=O)c2ccccc2F)c[nH]1",
    "ASSAYED SYSTEM": "FGFR4",
    "OBSERVED VALUE": 0
  },
  {
    "COMPOUND": "Cc1cc(-c2c(-c3ccc(F)cc3)ncn2CCCN2CCOCC2)nc(N)n1",
    "ASSAYED SYSTEM": "FGFR4",
    "OBSERVED VALUE": 0
  },
  {
    "COMPOUND": "N#CC1(c2cccc(C(=O)Nc3cccc(Oc4ccc5nc(NC(=O)C6CC6)sc5n4)c3)c2)CC1",
    "ASSAYED SYSTEM": "FGFR4",
    "OBSERVED VALUE": 70
  },
  {
    "COMPOUND": "CN(c1ccc(F)c(NC(=O)c2cccc(OC(C)(C)C#N)c2Cl)c1)c1ccc2nc(NC(=O)C3CC3)sc2n1",
    "ASSAYED SYSTEM": "FGFR4",
    "OBSERVED VALUE": 26
  },
  {
    "COMPOUND": "O=C(O)C(F)(F)F.O=c1[nH]ccc2nc(N[C@@H]3CCNC3)nc(Nc3cc(Cl)cc(Cl)c3)c12",
    "ASSAYED SYSTEM": "FGFR4",
    "OBSERVED VALUE": 27
  },
  {
    "COMPOUND": "CC(=O)Nc1cn2nc(Oc3cccc(NC(=O)c4cccc(C(F)(F)F)c4)c3)ccc2n1",
    "ASSAYED SYSTEM": "FGFR4",
    "OBSERVED VALUE": 50
  },
  {
    "COMPOUND": "O=C(O)C(F)(F)F.O=c1[nH]ccc2nc(N[C@@H]3CCNC3)nc(Nc3ccc4c(c3)S(=O)(=O)CC4)c12",
    "ASSAYED SYSTEM": "FGFR4",
    "OBSERVED VALUE": 0
  },
  {
    "COMPOUND": "COC(=O)Nc1nc2ccc(Oc3ccc(NC(=O)Nc4cc(C(F)(F)F)ccc4F)cc3)cc2[nH]1.Cl",
    "ASSAYED SYSTEM": "FGFR4",
    "OBSERVED VALUE": 17
  },
  {
    "COMPOUND": "Cc1cccc(Nc2nc(N[C@H]3CCCC[C@H]3N)ncc2C(N)=O)c1.Cl",
    "ASSAYED SYSTEM": "FGFR4",
    "OBSERVED VALUE": 15
  },
  {
    "COMPOUND": "Cc1cccc(Nc2nc(NCCN)ncc2C(N)=O)c1",
    "ASSAYED SYSTEM": "FGFR4",
    "OBSERVED VALUE": 0
  },
  {
    "COMPOUND": "CN(c1ccc(NC(=O)N2CCN(CCCN3CCOCC3)CC2)cc1)c1ccnc(Nc2ccc(CS(C)(=O)=O)cc2)n1.Cl",
    "ASSAYED SYSTEM": "FGFR4",
    "OBSERVED VALUE": 5
  },
  {
    "COMPOUND": "Cn1cc(-c2ccc3c(c2)CCN3C(=O)Cc2cc(F)cc(F)c2F)c2c(N)ncnc21",
    "ASSAYED SYSTEM": "FGFR4",
    "OBSERVED VALUE": 0
  },
  {
    "COMPOUND": "Cc1ccc(C)c(NC(=O)Nc2ccc(C)c(-c3ccc(C(=O)Nc4ccncc4)cc3)c2)c1",
    "ASSAYED SYSTEM": "FGFR4",
    "OBSERVED VALUE": 3
  },
  {
    "COMPOUND": "Cl.Cl.NC(CNC(=O)c1cc(Br)c(-c2ccnc3[nH]ccc23)s1)c1ccccc1 (stereo not shown)",
    "ASSAYED SYSTEM": "FGFR4",
    "OBSERVED VALUE": 29
  },
  {
    "COMPOUND": "CN(c1ccc2c(c1)nc(NCc1ccccc1)n2C)c1ccnc(Nc2ccc(CS(C)(=O)=O)cc2)n1.Cl",
    "ASSAYED SYSTEM": "FGFR4",
    "OBSERVED VALUE": 0
  },
  {
    "COMPOUND": "COc1cc(Nc2nccc(N3CCC(NC(=O)Nc4ccc5c(c4)OCO5)C3)n2)cc(OC)c1OC (stereo not shown)",
    "ASSAYED SYSTEM": "FGFR4",
    "OBSERVED VALUE": 0
  },
  {
    "COMPOUND": "O=C(Nc1n[nH]c2nc(-c3ccccc3)ccc12)C1CC1",
    "ASSAYED SYSTEM": "FGFR4",
    "OBSERVED VALUE": 12
  },
  {
    "COMPOUND": "CCn1c(-c2nonc2N)nc2c(-c3ccccc3)ncc(OCCCN)c21.O=C(O)C(F)(F)F.O=C(O)C(F)(F)F",
    "ASSAYED SYSTEM": "FGFR4",
    "OBSERVED VALUE": 0
  },
  {
    "COMPOUND": "CCOc1nccc(-c2c(-c3ccc(F)cc3)ncn2C2CCNCC2)n1",
    "ASSAYED SYSTEM": "FGFR4",
    "OBSERVED VALUE": 4
  },
  {
    "COMPOUND": "COc1ccc(C2=C(Nc3cccc(O)c3)C(=O)NC2=O)cc1",
    "ASSAYED SYSTEM": "FGFR4",
    "OBSERVED VALUE": 27
  },
  {
    "COMPOUND": "COc1cc(Nc2ccnc3cc(-c4ccncc4)ccc23)cc(OC)c1OC.Cl",
    "ASSAYED SYSTEM": "FGFR4",
    "OBSERVED VALUE": 0
  },
  {
    "COMPOUND": "CNc1nccc(-c2ccc3c(N)n[nH]c3c2)n1",
    "ASSAYED SYSTEM": "FGFR4",
    "OBSERVED VALUE": 2
  },
  {
    "COMPOUND": "Cc1cc(-c2ccnc(Nc3cccc(C#N)c3)n2)cc(C)c1O",
    "ASSAYED SYSTEM": "FGFR4",
    "OBSERVED VALUE": 14
  },
  {
    "COMPOUND": "COc1ccc(NC(=O)c2ccoc2)cc1-c1ccc(C(=O)NCC2CC2)cc1",
    "ASSAYED SYSTEM": "FGFR4",
    "OBSERVED VALUE": 1
  },
  {
    "COMPOUND": "COc1ccc(C)c(Nc2ccnc(Nc3ccc(-c4cnc[nH]4)cc3)n2)c1.Cl",
    "ASSAYED SYSTEM": "FGFR4",
    "OBSERVED VALUE": 100
  },
  {
    "COMPOUND": "Cc1ccc(NC(=O)c2cccc(N3CCCCC3)c2)cc1-c1ccc(C(=O)NCC2CC2)cc1",
    "ASSAYED SYSTEM": "FGFR4",
    "OBSERVED VALUE": 18
  },
  {
    "COMPOUND": "CCn1cnc2c(NCc3ccccc3)ncnc21",
    "ASSAYED SYSTEM": "FGFR4",
    "OBSERVED VALUE": 0
  },
  {
    "COMPOUND": "Fc1cc(Cl)ccc1Nc1ccnc2cc(-c3ccc(CN4CCSCC4)o3)ccc12",
    "ASSAYED SYSTEM": "FGFR4",
    "OBSERVED VALUE": 19
  },
  {
    "COMPOUND": "CC(C)c1nc(-c2ccc(F)c(NS(=O)(=O)c3c(F)cccc3F)c2)c(-c2ccnc(Nc3ccc(N4CCOCC4)nc3)n2)s1",
    "ASSAYED SYSTEM": "FGFR4",
    "OBSERVED VALUE": 0
  },
  {
    "COMPOUND": "Cc1ccc(Nc2ccnc(Nc3ccc(C)c(F)c3)n2)cc1O.Cl",
    "ASSAYED SYSTEM": "FGFR4",
    "OBSERVED VALUE": 5
  },
  {
    "COMPOUND": "O=C(Nc1n[nH]c2nc(-c3cccc(O)c3)ccc12)C1CC1",
    "ASSAYED SYSTEM": "FGFR4",
    "OBSERVED VALUE": 0
  },
  {
    "COMPOUND": "CCNC(=O)/C=C/c1n[nH]c2cc(Sc3ccccc3C(=O)NC)ccc12",
    "ASSAYED SYSTEM": "FGFR4",
    "OBSERVED VALUE": 14
  }
]
